This collection of values is drawn from paper PMC6479915.

pIC50: −log10 of the molar value.
Test system AChE from electric eel (Electrophorus electricus, UniProt O42275), pIC50 listed for each of the compounds.
parameter-measured: pIC50

compound	measured-value
COC(=O)N(C)C(C)C(=O)c1ccc(C)cc1 (centres unmarked)	4.30
CC(C(=O)c1cccc2ccccc12)N(C)C(=O)OCc1ccccc1 (centres unmarked)	3.98
CC(C(=O)c1cccc(Cl)c1)N(C)C(=O)OCc1ccccc1 (centres unmarked)	4.07
CC(C(=O)c1ccc(Br)c2ccccc12)N(C)C(=O)OCc1ccccc1 (centres unmarked)	3.89
CCC(C(=O)c1ccccc1)N(C)C(=O)OC (centres unmarked)	3.48

---

molecular target: BChE from equine serum (Equus caballus); construct: BChE (from equine serum); test: In vitro BChE inhibition, modified Ellman's method
Sequence (P81908 whole entry): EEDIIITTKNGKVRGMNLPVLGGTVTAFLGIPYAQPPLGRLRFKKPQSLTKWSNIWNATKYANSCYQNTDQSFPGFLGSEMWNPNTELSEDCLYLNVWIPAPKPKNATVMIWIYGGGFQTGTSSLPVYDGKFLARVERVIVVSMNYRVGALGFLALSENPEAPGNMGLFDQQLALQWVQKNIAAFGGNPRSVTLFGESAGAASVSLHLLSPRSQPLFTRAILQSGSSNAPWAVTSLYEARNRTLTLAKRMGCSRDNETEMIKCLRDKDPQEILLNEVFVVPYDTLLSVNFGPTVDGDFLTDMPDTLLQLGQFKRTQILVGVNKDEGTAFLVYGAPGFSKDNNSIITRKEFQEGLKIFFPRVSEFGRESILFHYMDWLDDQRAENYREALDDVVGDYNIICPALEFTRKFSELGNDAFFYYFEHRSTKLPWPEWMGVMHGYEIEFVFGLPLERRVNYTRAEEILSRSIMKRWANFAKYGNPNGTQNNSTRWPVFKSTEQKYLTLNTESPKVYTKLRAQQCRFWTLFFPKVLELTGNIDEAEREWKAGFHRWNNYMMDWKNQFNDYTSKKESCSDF
The following molecules are shown together with reported IC50 values.

molecule	assay-system	IC50, µM
Cc1ccc(C(=O)C(C)N(C)C(=O)Oc2ccccc2)cc1C (stereo not shown)	BChE from equine serum (Equus caballus)	26.4
Cc1ccc(C(=O)C(C)N(C)C(=O)OCc2ccccc2)cc1C (stereo not shown)	BChE from equine serum (Equus caballus)	16.9
CCC(C(=O)c1ccccc1)N(CC)C(=O)Oc1ccccc1 (stereo not shown)	BChE from equine serum (Equus caballus)	15.6
CC(C(=O)c1cccc(Cl)c1)N(C)C(=O)OCc1ccccc1 (stereo not shown)	BChE from equine serum (Equus caballus)	5.51
CCN(C(=O)OC)C(C)C(=O)c1ccccc1 (stereo not shown)	BChE from equine serum (Equus caballus)	228
CC(C(=O)c1ccc(Br)cc1)N(C)C(=O)Oc1ccccc1 (stereo not shown)	BChE from equine serum (Equus caballus)	44.1
CC(C(=O)c1ccc(Br)c2ccccc12)N(C)C(=O)Oc1ccccc1 (stereo not shown)	BChE from equine serum (Equus caballus)	13
COC(=O)N(C)C(C)C(=O)c1ccc(OC)cc1 (stereo not shown)	BChE from equine serum (Equus caballus)	187
CCC(C(=O)c1ccccc1)N(C)C(=O)OC (stereo not shown)	BChE from equine serum (Equus caballus)	441
Cc1cccc(C(=O)C(C)N(C)C(=O)OCc2ccccc2)c1 (stereo not shown)	BChE from equine serum (Equus caballus)	12.5
